Just for reference, patent US20120065187A1 is where these values come from.

biological target: human H4 (Homo sapiens); construct: host or cells: CHO-K1; assay: In vitro histamine receptor cell-based assay (aequorin bioluminescence), H4 antagonism; conditions: CHO-K1 cells expressing human H4, aequorin and Gα16; histamine at EC80; read-out: H4 Antagonist EC50
Sequence (Q9H3N8 whole entry): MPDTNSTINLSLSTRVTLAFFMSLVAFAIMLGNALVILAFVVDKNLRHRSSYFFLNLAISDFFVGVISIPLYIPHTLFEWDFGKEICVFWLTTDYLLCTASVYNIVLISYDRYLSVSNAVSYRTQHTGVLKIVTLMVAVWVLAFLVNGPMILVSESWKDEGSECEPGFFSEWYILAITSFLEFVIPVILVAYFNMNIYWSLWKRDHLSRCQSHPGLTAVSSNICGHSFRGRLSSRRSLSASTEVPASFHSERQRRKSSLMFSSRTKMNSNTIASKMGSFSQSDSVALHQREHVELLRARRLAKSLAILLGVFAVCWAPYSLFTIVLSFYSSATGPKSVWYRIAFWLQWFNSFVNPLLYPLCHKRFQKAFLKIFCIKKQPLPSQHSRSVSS
pEC50: −log10 of the molar value. Counter-ions that a name gives are not always drawn.
metric_name: pEC50

stdin: Specify pEC50 for Clc1ccc2nc(N3CCNCC3)c3nccn3c2c1 [Example 8] and stop.
stdout: > 5.00

stdin: Specify pEC50 for Cc1cn2c(n1)c(N1CCN(C)CC1)nc1cc(Cl)ccc12 [Example 11] and stop.
stdout: > 5.00

stdin: Specify pEC50 for Cc1nc2c3cc(Cl)cc(F)c3nc(N3CCNCC3)n2n1 [Example 247] and stop.
stdout: > 5.00

stdin: Specify pEC50 for CN1CCN(c2nc3cc(Br)ccc3n3cnnc23)CC1 [Example 193] and stop.
stdout: > 5.00

stdin: Specify pEC50 for NC1CCN(c2nc3ccc(Cl)cc3n3cnnc23)CC1 [Example 81] and stop.
stdout: < 5.00

stdin: Specify pEC50 for CN1CCN(c2nc3ccc(OC(F)(F)F)cc3n3cnnc23)CC1 [Example 50] and stop.
stdout: > 5.00

stdin: Specify pEC50 for Clc1ccc2nc(N3CCCNCC3)c3nncn3c2c1 [Example 66] and stop.
stdout: > 5.00

stdin: Specify pEC50 for Cc1ccc2nc(N3CCN(C)CC3)c3nnnn3c2c1 [Example 15] and stop.
stdout: > 5.00

stdin: Specify pEC50 for CNCCN(C)c1nc2ccc(Cl)cc2n2cnnc12 [Example 77] and stop.
stdout: < 5.00

stdin: Specify pEC50 for Fc1cc(Cl)cc2nc(N3CCNCC3)c3nncn3c12 [Example 192] and stop.
stdout: < 5.00

stdin: Specify pEC50 for CN1CCN(c2nc3ccc(C(F)(F)F)cc3c3nc(C(F)(F)F)nn23)CC1 [Example 120] and stop.
stdout: > 5.00

stdin: Specify pEC50 for CN1CCN(c2nc3cc(C(F)(F)F)ccc3n3cnnc23)CC1 [Example 25] and stop.
stdout: > 5.00

stdin: Specify pEC50 for CN1CCN(c2nc3ccc(Cl)cc3n3ncnc23)CC1 [Example 243] and stop.
stdout: > 5.00

stdin: Specify pEC50 for Cc1nc2c3cc(OC(F)(F)F)ccc3nc(N3CCN(C)CC3)n2n1.Cl [Example 133, hydrochloride] and stop.
stdout: > 5.00

stdin: Specify pEC50 for Clc1ccc2nc(N3CCN(C4CC4)CC3)c3nncn3c2c1 [Example 64] and stop.
stdout: > 5.00

stdin: Specify pEC50 for CN1CCN(c2nc3cc(C(F)(F)F)ccc3c3conc23)CC1 [Example 220] and stop.
stdout: > 5.00

stdin: Specify pEC50 for Cc1nc2c3cc(C(F)(F)F)cc(F)c3nc(N3CCNCC3)n2n1 [Example 128, hydrochloride] and stop.
stdout: > 5.00

stdin: Specify pEC50 for Clc1ccc2nc(N3CCN4CCCC4C3)c3nncn3c2c1 (stereo not shown) [Example 65] and stop.
stdout: > 5.00

stdin: Specify pEC50 for CN1CCN(c2nc3ccc(Cl)cc3c3nncn23)CC1 [Example 14] and stop.
stdout: < 5.00
